From: paper PMC6943434

Tested on: HeLa (cervical cancer cell line)
measurement.description: MTT cell viability assay, HeLa
Type: cell-based
run.parameters: Homo sapiens, 48 h, read-out: Antiproliferative Activity IC50 ± SEM, HeLa
Here the recorded IC50 is given for each entry.

Below, 5 compounds whose answers are already recorded.
[
  {
    "compound": "O=C(NCCCCCCCCCCNC(=O)c1cc2ccccc2oc1=O)c1cc2ccccc2oc1=O [Compound 20e]",
    "system.tested": "HeLa (cervical cancer cell line)",
    "IC50": "> 20 µM"
  },
  {
    "compound": "Nc1cccc(C(=O)NCCCCCCCCCCNC(=O)c2cccc(N)c2)c1 [Compound 32e]",
    "system.tested": "HeLa (cervical cancer cell line)",
    "IC50": "> 20 µM"
  },
  {
    "compound": "O=C(NCCCCCCCCCCNC(=O)c1ccc2ncccc2c1)c1ccc2ncccc2c1 [Compound 18e]",
    "system.tested": "HeLa (cervical cancer cell line)",
    "IC50": "> 20 µM"
  },
  {
    "compound": "O=C(NCCCCCCCCCCNC(=O)c1cccnc1)c1cccnc1 [Compound 10e, N,N′-(Decane-1,10-Diyl)Dinicotinamide]",
    "system.tested": "HeLa (cervical cancer cell line)",
    "IC50": "> 100 µM"
  },
  {
    "compound": "Cc1nc(C)c(C)nc1C [TMP, 2,3,5,6-tetramethylpyrazine, reference compound]",
    "system.tested": "HeLa (cervical cancer cell line)",
    "IC50": "> 100 µM"
  }
]

// next item, IC50 requested
Give the measured IC50 of COc1ccc(/C=C/C(=O)NCCCCCCCCCCNC(=O)/C=C/c2ccc(OC)c(O)c2)cc1O [Compound 26e] .
> 20 µM
